Collected GI50 values appear next to each entry.
tested on: A498; assay: NCI tumour cell line growth inhibition, 48 h
The source made the active and inactive calls. No stated cut-off is given here; in the data, active = GI50 up to about 1.1 µM and inactive = higher. Square brackets hold non-standard residues; d marks the D form. Peptide text beside a SMILES is read from it. * marks the point of attachment. Tyr(3-Br) = N[C@@H](Cc1ccc(O)c(Br)c1)C(=O)O; Boc = CC(C)(C)OC(=O)*
measurement.kind: GI50

>>> recorded_value("CC(Oc1ccc(Oc2cnc3ccc(Cl)cc3n2)cc1)C(=O)O (stereo not drawn)")
"> 62.1 µM (inactive)"
>>> recorded_value("[N-]=[N+]=NC1=C(c2ccccc2)C(=O)c2cccc3cccc1c23")
"1.52 µM (inactive)"
>>> recorded_value("C=CCNC(=O)N(CCCCC(NC(C)=O)C(=O)NCc1ccccc1)Cc1ccccc1 (stereo not drawn)")
"> 100 µM (inactive)"
>>> recorded_value("CC(C)(C)c1cc(C2=NN(c3ccccc3)C(c3ccccc3)C2)cc(C(C)(C)C)c1O (stereo not drawn)")
"> 100 µM (inactive)"
>>> recorded_value("COC(=O)C(=O)C(C(=O)C(=O)Nc1nc2ccc(C)cc2s1)c1nc2ccc([N+](=O)[O-])cc2nc1O (stereo not drawn)")
"> 100 µM (inactive)"
>>> recorded_value("CC(C)(C)c1cc(C(P(=O)(c2ccccc2)c2ccccc2)P(=O)(c2ccccc2)c2ccccc2)cc(C(C)(C)C)c1O")
"2.74 µM (inactive)"
>>> recorded_value("CC(=O)[O-].Cc1ncc(CO)c(/C=N/NC(N)=S)c1[O-].[Zn+2]")
"> 100 µM (inactive)"
>>> recorded_value("CC(C)[C@H](NC(=O)[C@H](N)Cc1ccc(N(CCCl)CCCl)cc1)C(=O)O")
"> 100 µM (inactive)"
>>> recorded_value("CCc1oc2ccc(OC)c3c2c1C=CC=C3")
"> 100 µM (inactive)"
>>> recorded_value("Cn1cnc(/C=C/C#N)c1")
"> 100 µM (inactive)"
>>> recorded_value("O=C1/C(=C/c2cccc([N+](=O)[O-])c2)COc2ccccc21")
"40.8 µM (inactive)"
>>> recorded_value("CCCCC(C(=O)C(=O)NC1C2CC3CC(C2)CC1C3)C(=O)C(C)C (stereo not drawn)")
"> 100 µM (inactive)"
>>> recorded_value("COc1cc(Br)cc2c1O[C@H]1C(=O)CC3CC21CCN3C (stereo partly drawn)")
"> 100 µM (inactive)"
>>> recorded_value("O=C1c2scc(-c3ccc(F)cc3)c2-n2cccc21")
"1.47 µM (inactive)"
>>> recorded_value("CC(=O)NNc1nc(C)c(C(/C=C/c2ccccc2O)=N/NC(=O)c2ccncc2)s1")
"> 100 µM (inactive)"
>>> recorded_value("COc1ccc(/C=N/n2c(Cc3ccccc3)n[nH]c2=O)c(OC)c1")
"44.4 µM (inactive)"
>>> recorded_value("CC(C)(C)c1ccc(O)c(C(c2ccc([N+](=O)[O-])cc2)c2cc(C(C)(C)C)ccc2O)c1")
"2.11 µM (inactive)"
>>> recorded_value("NC1(C(=O)O)CCC(C(=O)O)CC1 (stereo not drawn)")
"> 100 µM (inactive)"
>>> recorded_value("COC(=O)[C@H](Cc1ccc(O)c(Br)c1)NC(=O)[C@H](Cc1ccc(O)cc1)NC(=O)OC(C)(C)C (Boc-Tyr-[Tyr(3-Br)]-OMe)")
"> 100 µM (inactive)"
>>> recorded_value("C=CC1(C)/C(=N\\O)C(C)(CC)C(=O)N1O (stereo not drawn)")
"> 100 µM (inactive)"
>>> recorded_value("C/C(Cc1ccc2c(c1)OCO2)=N\\NC(=O)C(C)Sc1nnc(SC(C)C(=O)N/N=C(\\C)Cc2ccc3c(c2)OCO3)s1 (stereo not drawn)")
"62.4 µM (inactive)"
>>> recorded_value("COc1ccc(OC(C(=O)O)c2ccccc2)c2c1CCCC2=O (stereo not drawn)")
"> 100 µM (inactive)"
>>> recorded_value("COc1ccc2nc3n(c2c1)C(c1c(F)cccc1F)SC3 (stereo not drawn)")
"95.3 µM (inactive)"
>>> recorded_value("C/C(=N\\Nc1nc2ccccc2o1)c1ccc2ccccc2n1")
"2.55 µM (inactive)"
>>> recorded_value("Nc1nc(Cl)c(CO)c(NCC2(CO)CCC2)n1")
"> 100 µM (inactive)"
>>> recorded_value("Cc1ccc(S(=O)(=O)N/N=C\\c2c3ccccc3[n+]([O-])c3ccccc23)cc1")
"3.8 µM (inactive)"
>>> recorded_value("COC(=O)NC(=O)NC(Cc1ccccc1)NC(=O)OCc1ccccc1 (stereo not drawn)")
"30.3 µM (inactive)"
>>> recorded_value("COc1ccc(NC(=O)C(C)Oc2ccc(OCC3CCCCC3)cc2)cc1 (stereo not drawn)")
"> 100 µM (inactive)"
>>> recorded_value("Cc1cccc(Cl)c1NC(N)=S")
"66.7 µM (inactive)"
>>> recorded_value("C=CC1C(OC2OC(CO)C(O)C(O)C2O)OC=C(C(=O)OC)C1CC1CC(=O)CC(CCc2ccc(O)cc2)O1 (stereo not drawn)")
"> 100 µM (inactive)"
>>> recorded_value("O=C1CC(c2ccc(Cl)cc2)C2(C(=O)NC(=S)NC2=O)C(c2ccc(Cl)cc2)C1 (stereo not drawn)")
"15.9 µM (inactive)"
>>> recorded_value("C=CC[C@@H]1C(=O)[C@@]2(O[Si](C(C)C)(C(C)C)C(C)C)CC[C@@H]1C[C@H]2NC(=O)OCC(Cl)(Cl)Cl")
"> 100 µM (inactive)"
>>> recorded_value("S=C(c1c[nH]c2ccccc12)N1CCCCC1")
"> 100 µM (inactive)"
>>> recorded_value("CCSC12OC3(CCCCCN3C1=O)C1C(=O)N(c3ccccc3)C(=O)C12 (stereo not drawn)")
"> 100 µM (inactive)"
>>> recorded_value("CCC(CCCC[C@H]1CC[C@@H]2CC(=O)C[C@H]12)OC (stereo partly drawn)")
"> 100 µM (inactive)"
>>> recorded_value("COC1OC(=O)C(OC)C(OC)C1OC (stereo not drawn)")
"> 100 µM (inactive)"
>>> recorded_value("CC(=O)[C@]1(O)Cc2c(O)c3c(c(O)c2[C@@H](OC2CC(N)C(O)C(C)O2)C1)C(=O)c1c(OCc2ccccc2)cccc1C3=O (stereo partly drawn)")
"5.61 µM (inactive)"
>>> recorded_value("COc1ccccc1N1C(=O)C2C3c4ccccc4C(OC(C)=O)(c4ccccc43)C2C1=O (stereo not drawn)")
"> 100 µM (inactive)"
>>> recorded_value("Cn1c(=O)c2c(ncn2CCNC(CO)C(O)c2ccc([N+](=O)[O-])cc2)n(C)c1=O (stereo not drawn)")
"> 100 µM (inactive)"
>>> recorded_value("CC(=O)OC1CCC2C3CCc4c(C)ccc(OS(=O)(=O)c5ccccc5)c4C3CCC12C (stereo not drawn)")
"32.5 µM (inactive)"
>>> recorded_value("C=CC12CN(C)C3C4COC(CC41)C1(C(=O)Nc4ccccc41)C32 (stereo not drawn)")
"9.29 µM (inactive)"
>>> recorded_value("CCCC(=O)[O-].[Na+] [SODIUM BUTYRATE]")
"4400 µM (inactive)"
>>> recorded_value("CCN(CC)c1ccc(/N=N\\c2ccc(-c3nc4ccc[n+](C)c4s3)cc2)cc1")
"13.4 µM (inactive)"
